- system.under.test: T1, murine full-length Tie2 on HEK293 cells (mouse, UniProt Q02858 23-1122)
- T1 construct: whole, on cells; also called HEK293/Murine Tie2; HEK/mTie2
- assay.details: flow cytometry on HEK293/Murine Tie2 cells, mAb at 10 ug/mL
Quick reference for Cross-Reactivity Screen (mAb at 10 ug/mL) among some binders
Could you respond with only the numeric value?

[
  {
    "binder": "anti-Tie2 antibody #31 (antibody, V domains shown, also called Ab #31; Antibody Clone # 31) VH: DVQLVESGGGVVRPGESPRLSCAASGFSFINFAMTWVRQAPGEGPEWVSLISDDGRGNRPYYADSVKGRFTISRDNSKNILYLQMNSLRVEDTATYYCAKVSWDVFFDYWGLGTLVTVSS VL: EIVLTQSPGTVSLSPGERVTLSCRASQPIDVYLAWYQQKPGQAPRLLIYGANRRAIDIPDRFSGSGSGTEFTLTINSLQNEDFAVYFCQQYMTWPPVTFGGGTKVEIK",
    "observed.value": 28.5
  }
]

The binder listed as anti-Tie2 antibody #6 (antibody, V domains shown, also called Ab #6; Antibody Clone # 6) VH: DVQLVESGGGVVRPGESLRLSCTASGFSFDVYAMTWVRQAPGKGLEWLTLISGTGRMTYYADSVKGRFTVSRDNSKKTLYLQMNSLRAEDTAVYYCAKDPFGHGFFDYWGLGTLVTVSS VL: EIVLTQSPGTLTLSPGETATLTCRASQSVNRNLAWYQEKPDQAPRLLIYDARTRATGVPDRFSGSGSGTDFTLTINSLQSEDFAVYVCQQYYDWPPFTFGGGTKVEIK shows Cross-Reactivity Screen (mAb at 10 ug/mL) equal to 0.3
